Protocol summary: self-splicing fitness, log relative to wild type (ln ratio); higher = more splicing; Tetrahymena group I intron in knt gene, E. coli kanamycin selection, DiMSum; sequences stand for … in CUCUCU…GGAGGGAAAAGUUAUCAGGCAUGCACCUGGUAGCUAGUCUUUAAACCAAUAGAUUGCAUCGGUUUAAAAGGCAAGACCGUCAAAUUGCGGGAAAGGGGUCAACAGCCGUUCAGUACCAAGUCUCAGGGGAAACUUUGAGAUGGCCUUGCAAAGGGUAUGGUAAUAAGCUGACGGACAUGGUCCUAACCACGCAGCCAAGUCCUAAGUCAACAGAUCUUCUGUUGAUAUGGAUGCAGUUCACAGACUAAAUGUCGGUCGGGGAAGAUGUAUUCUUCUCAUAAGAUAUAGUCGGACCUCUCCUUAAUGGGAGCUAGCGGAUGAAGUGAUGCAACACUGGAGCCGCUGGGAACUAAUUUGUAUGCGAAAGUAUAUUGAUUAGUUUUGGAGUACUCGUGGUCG;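 further: selection with 25 µg/mL kanamycin versus none on LB agar overnight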
Settings: 37 °C
Measurement name: self-splicing fitness (ln)

Look over these answered cases.
UAUAAGCAAUAUUACGCGCA :: 0.304
GGAAAGCAAUAUUACGCCCG :: -0.0766
AACCAGCAAUAUUACGGUGU :: -2.56
GGCGAGCAAUAUUACGGGUC :: -1.81
GCCAAGCAAUAUUACGUAUA :: -0.632

The reported self-splicing fitness (ln) of the sequence CUGUAGCAAUAUUACGGUAG was -1.98

Kindly note the recorded self-splicing fitness (ln) for UGGUAGCAAUAUUACGAGCC , which is -1.91

Note to self: self-splicing fitness (ln) recorded for UUGAAGCAAUAUUACGAAUC was -2.12

Notebook: GAGUAGCAAUAUUACGUGGC , self-splicing fitness (ln) read as -2.03

Given item CGUUAGCAAUAUUACGGGCC , the value recorded as its self-splicing fitness (ln) is -1.75

Record GCGAAGCAAUAUUACGAGCA . Reported self-splicing fitness (ln): -1.63

What the record says about UCCAAGCAAUAUUACGGCCU : self-splicing fitness (ln) is -2.6

Given item CCUAAGCAAUAUUACGACUC , the value recorded as its self-splicing fitness (ln) is -2.04

For record UAAAAGCAAUAUUACGUCAU the listed self-splicing fitness (ln) is -1.88

Summary for this sequence, UAAAAGCAAUAUUACGUCAC : self-splicing fitness (ln) is -2.25

Kindly note the recorded self-splicing fitness (ln) for CUAAAGCAAUAUUACGCUAU , which is -2.75

* * *

Protocol summary: self-splicing fitness, log relative to wild type (ln ratio); higher = more splicing; Tetrahymena group I intron in knt gene, E. coli kanamycin selection, DiMSum; sequences stand for … in CUCUCU…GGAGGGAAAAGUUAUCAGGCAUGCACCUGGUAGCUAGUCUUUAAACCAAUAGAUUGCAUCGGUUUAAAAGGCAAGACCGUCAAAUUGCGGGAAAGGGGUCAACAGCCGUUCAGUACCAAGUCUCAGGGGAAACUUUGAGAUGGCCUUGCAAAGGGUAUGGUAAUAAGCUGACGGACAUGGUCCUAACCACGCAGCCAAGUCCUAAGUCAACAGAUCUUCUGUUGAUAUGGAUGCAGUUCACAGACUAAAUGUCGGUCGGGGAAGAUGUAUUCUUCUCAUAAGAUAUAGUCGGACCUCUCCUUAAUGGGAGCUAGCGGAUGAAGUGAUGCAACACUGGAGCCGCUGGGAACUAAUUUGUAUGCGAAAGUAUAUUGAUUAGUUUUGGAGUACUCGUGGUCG
Settings: 37 °C
Measured self-splicing fitness (ln) by item
Response field accepts a number only; no unit should be typed.

The reported self-splicing fitness (ln) of the sequence CAUGAGCAAUAUUACGUAUA was -2.2

The sequence CUUUAGCAAUAUUACGGUGG showed self-splicing fitness (ln) equal to -0.665

Input ACCCAGCAAUAUUACGGAUU . Output self-splicing fitness (ln): -0.157

Entry AAGAAGCAAUAUUACGGUAC — recorded self-splicing fitness (ln) = -2.96

self-splicing fitness (ln) recorded for this sequence, AACCAGCAAUAUUACGCCGC , is -2.45

* * *

Protocol summary: self-splicing fitness, log relative to wild type (ln ratio); higher = more splicing; Tetrahymena group I intron in knt gene, E. coli kanamycin selection, DiMSum; sequences stand for … in CUCUCU…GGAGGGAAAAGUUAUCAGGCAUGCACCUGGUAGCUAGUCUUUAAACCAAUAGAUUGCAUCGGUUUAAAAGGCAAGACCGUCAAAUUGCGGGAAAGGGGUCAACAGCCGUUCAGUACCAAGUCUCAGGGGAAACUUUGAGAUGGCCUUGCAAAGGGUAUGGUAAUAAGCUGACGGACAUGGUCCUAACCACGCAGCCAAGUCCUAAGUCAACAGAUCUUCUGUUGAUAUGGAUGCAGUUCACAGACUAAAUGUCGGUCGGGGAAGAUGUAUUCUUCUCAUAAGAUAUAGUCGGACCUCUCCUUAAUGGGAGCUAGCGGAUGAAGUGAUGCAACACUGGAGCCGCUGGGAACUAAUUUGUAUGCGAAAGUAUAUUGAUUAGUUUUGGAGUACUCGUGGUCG
Settings: 30 °C
Measurement name: self-splicing fitness (ln)

Reference set (4 entries):
CAGAAGCAAUAUUACGCCUG :: -2.25
AUACAGCAAUAUUACGCACC :: -1.21
CCCCAGCAAUAUUACGCACA :: -3.56
GGCUAGCAAUAUUACGUUGC :: -1.94

Okay, next one:
Input GGGCAGCAAUAUUACGUCAA . Output self-splicing fitness (ln): 0.3

* * *

Protocol summary: self-splicing fitness, log relative to wild type (ln ratio); higher = more splicing; Tetrahymena group I intron in knt gene, E. coli kanamycin selection, DiMSum; sequences stand for … in CUCUCU…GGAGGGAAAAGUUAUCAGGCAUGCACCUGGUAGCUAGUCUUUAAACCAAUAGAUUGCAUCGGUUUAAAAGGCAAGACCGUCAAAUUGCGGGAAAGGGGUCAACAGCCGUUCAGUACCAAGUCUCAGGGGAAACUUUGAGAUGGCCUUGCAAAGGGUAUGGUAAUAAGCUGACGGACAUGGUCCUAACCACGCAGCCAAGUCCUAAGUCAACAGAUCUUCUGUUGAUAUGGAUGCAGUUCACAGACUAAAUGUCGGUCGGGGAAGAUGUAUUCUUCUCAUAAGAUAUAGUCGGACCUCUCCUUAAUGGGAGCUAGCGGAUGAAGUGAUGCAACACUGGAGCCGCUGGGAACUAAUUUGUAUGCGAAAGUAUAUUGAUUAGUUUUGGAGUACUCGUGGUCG
Settings: 37 °C
Assign label 1 whenever self-splicing fitness (ln) does not fall below -2; assign label 0 whenever it does.

Consider the worked cases shown below.
GGCGAGCAAUAUUACGAUGU :: label 1
AUCCAGCAAUAUUACGCACU :: label 1
ACCUAGCAAUAUUACGGCAU :: label 1

// query Is self-splicing fitness (ln) for UUAGAGCAAUAUUACGAGCA at or above -2?
// result label 1

// query For this sequence, is measured self-splicing fitness (ln) -2 or higher? CAAUAGCAAUAUUACGCGUA
// result label 1

// query Assess whether reported self-splicing fitness (ln) for AGACAGCAAUAUUACGGACU sits at -2 or higher.
// result label 1

// query Please check the record CGGUAGCAAUAUUACGAAUA and state if its self-splicing fitness (ln) is at or above -2.
// result label 1

// query Assess whether reported self-splicing fitness (ln) for AAUCAGCAAUAUUACGAAGG sits at -2 or higher.
// result label 1

// query Could you please find out whether GAGCAGCAAUAUUACGUCAG has self-splicing fitness (ln) that meets -2 or exceeds it?
// result label 0

// query Record ACCGAGCAAUAUUACGGACG ; criterion: self-splicing fitness (ln) no lower than -2. Met?
// result label 1

// query # check: self-splicing fitness (ln) of GUUAAGCAAUAUUACGCCCA is greater than or equal to -2
// result label 1

// query Is self-splicing fitness (ln) at least -2? Consider CUACAGCAAUAUUACGGAUG
// result label 1

// query Please tell me: is the sequence AUUAAGCAAUAUUACGGUAG at or over -2 in terms of self-splicing fitness (ln)?
// result label 0

// query self-splicing fitness (ln) >= -2 for AACCAGCAAUAUUACGAGGC ?
// result label 0

// query hey, is self-splicing fitness (ln) for this one >= -2? GUAUAGCAAUAUUACGGAGA
// result label 0

// query Is reported self-splicing fitness (ln) greater than or equal to -2 here: AUUAAGCAAUAUUACGUGGC
// result label 1

// query Threshold query (self-splicing fitness (ln) >= -2) on AAUCAGCAAUAUUACGGCAU
// result label 1

// query API: above_or_equal(metric=self-splicing fitness (ln), cutoff=-2) for item UCACAGCAAUAUUACGUUGC
// result label 0

Hello, the source for this data is the supplement of paper PMC7877785, in case you need it.
